Molecular target: T1, extracellular domain of activin receptor type IIB (ActRIIBecd), biotinylated (Homo sapiens (Human), UniProt Q13705 27-117, amino-biotinylated with amine-PEG3-Biotin)
T1 construct: immobilised on a streptavidin-coated sensor chip; also called biotinylated ActRIIBecd; extracellular domain of ActRIIB
T1 sequence: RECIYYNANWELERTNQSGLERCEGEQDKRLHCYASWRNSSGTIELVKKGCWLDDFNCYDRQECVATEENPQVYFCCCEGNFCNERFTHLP
Assay: BIAcore SPR, biotinylated ActRIIBecd on chip; SD ±19.11 nM
result-type: Kd (nM)
Enter your answer as a number in nM; do not include the unit.

Query: Using the record for Recombinant polypeptide of clones 16 + 26 (designed binder) VDFSDVGWNDWAVAPPGYHAFYCHGECPFPLADHLNSDNHAIVQTLVNSVTYPASPKPMRHSMRSCACCAGGLRNQTGTV , report its Kd.
Response: 57.8
